# assayMethodText: General statements on cleavage by piperidine or fluoride ion
# Type: physicochemical
# testParameters: piperidine
readoutKind: deblocking by / stability to piperidine

>>> testresult("CC(C)[Si](C(C)C)(C(C)C)C1(COC(=O)Nc2ccccc2)c2ccccc2-c2ccccc21")
"stable to piperidine"
>>> testresult("O=C(Nc1ccc(Cl)cc1)OCC1c2ccccc2Oc2ccccc21")
"stable to piperidine"

---

Listing of recorded Time for Complete Scavenging of Dibenzofulvene by entry.
# assayMethodText: Base deblocking of R-Fmoc-aniline by various amines
# Type: physicochemical
# testParameters: morpholine 100 eq., room temperature
Expressed in min, but write only the number.

>>> testresult("C[Si](C)(C)C1(COC(=O)Nc2ccccc2)c2ccccc2-c2ccccc21")
240
>>> testresult("CC(C)(C)c1ccc2c(c1)C(COC(=O)Nc1ccccc1)([Si](C)(C)C)c1cc(C(C)(C)C)ccc1-2")
1020

stdin: Consider the molecule shown here: C[Si](C)(c1ccccc1)C1(COC(=O)Nc2ccccc2)c2ccccc2-c2ccccc21 What is its recorded Time for Complete Scavenging of Dibenzofulvene?
stdout: 60

stdin: Consider the molecule shown here: C[Si](c1ccccc1)(c1ccccc1)C1(COC(=O)Nc2ccccc2)c2ccccc2-c2ccccc21 What is its recorded Time for Complete Scavenging of Dibenzofulvene?
stdout: 51

---

Listing of recorded Time for Complete Deblocking by entry.
# assayMethodText: Base deblocking of substituted urethanes (U-PCA) by various amines
# Format: physicochemical
# testParameters: morpholine 50 eq., dichloromethane, room temperature; significant aminodibenzofulvene type adduct formed
Expressed in h, but write only the number.

>>> testresult("C[Si](C)(C)C1(COC(=O)Nc2ccc(Cl)cc2)c2ccccc2-c2ccccc21")
13
>>> testresult("CC(C)(C)c1ccc2c(c1)C(COC(=O)Nc1ccc(Cl)cc1)c1cc(C(C)(C)C)ccc1-2")
10
>>> testresult("O=C(Nc1ccc(Cl)cc1)OCC1c2ccccc2-c2ccccc21 [Fmoc-PCA, 9-fluorenylmethyl p-chlorocarbanilate, reference compound]")
1.25

stdin: Consider the molecule shown here: C[Si](C)(C)c1ccc2c(c1)C(COC(=O)Nc1ccc(Cl)cc1)c1cc([Si](C)(C)C)ccc1-2 What is its recorded Time for Complete Deblocking?
stdout: 3.17

---

# assayMethodText: Base deblocking of R-Fmoc-aniline by various amines
# Assay type: physicochemical
# testParameters: t-butylamine 100 eq., room temperature
Listing of recorded Time for Complete Deblocking by entry.
Expressed in h, but write only the number.

Check out these entries, answers already filled in.
>>> testresult("C[Si](C)(C)C1(COC(=O)Nc2ccccc2)c2ccccc2-c2ccccc21")
12
>>> testresult("C[Si](c1ccccc1)(c1ccccc1)C1(COC(=O)Nc2ccccc2)c2ccccc2-c2ccccc21")
1.5

stdin: Consider the compound shown here: C[Si](C)(c1ccccc1)C1(COC(=O)Nc2ccccc2)c2ccccc2-c2ccccc21 What is its recorded Time for Complete Deblocking?
stdout: 3.5

---

# assayMethodText: Deblocking of R-Fmoc-aniline by fluoride ion
# Format: physicochemical
# testParameters: tetra-n-butylammonium chloride 3.0 eq., KF dihydrate 4.1 eq., acetonitrile, room temperature
readoutKind: Time for Complete Deblocking by Fluoride Ion

Check out these entries, answers already filled in.
>>> testresult("CC(C)(C)c1ccc2c(c1)C(COC(=O)Nc1ccccc1)([Si](C)(C)C)c1cc(C(C)(C)C)ccc1-2 [DT-TMS]")
"10 min"
>>> testresult("C[Si](C)(C)C1(COC(=O)Nc2ccccc2)c2ccccc2-c2ccccc21 [TMS-Fmoc-aniline]")
"5 min"
>>> testresult("C[Si](c1ccccc1)(c1ccccc1)C1(COC(=O)Nc2ccccc2)c2ccccc2-c2ccccc21 [DPMS]")
"< 2 min"

stdin: Consider the compound shown here: C[Si](C)(c1ccccc1)C1(COC(=O)Nc2ccccc2)c2ccccc2-c2ccccc21 [DMPS] What is its recorded Time for Complete Deblocking by Fluoride Ion?
stdout: < 2 min

stdin: Consider the compound shown here: CC(C)[Si](C(C)C)(C(C)C)C1(COC(=O)Nc2ccccc2)c2ccccc2-c2ccccc21 [TIPS] What is its recorded Time for Complete Deblocking by Fluoride Ion?
stdout: 1080 min
